- target_entity: human M1 muscarinic acetylcholine receptor (Homo sapiens (Human), UniProt P11229)
- Sequence (P11229 whole entry): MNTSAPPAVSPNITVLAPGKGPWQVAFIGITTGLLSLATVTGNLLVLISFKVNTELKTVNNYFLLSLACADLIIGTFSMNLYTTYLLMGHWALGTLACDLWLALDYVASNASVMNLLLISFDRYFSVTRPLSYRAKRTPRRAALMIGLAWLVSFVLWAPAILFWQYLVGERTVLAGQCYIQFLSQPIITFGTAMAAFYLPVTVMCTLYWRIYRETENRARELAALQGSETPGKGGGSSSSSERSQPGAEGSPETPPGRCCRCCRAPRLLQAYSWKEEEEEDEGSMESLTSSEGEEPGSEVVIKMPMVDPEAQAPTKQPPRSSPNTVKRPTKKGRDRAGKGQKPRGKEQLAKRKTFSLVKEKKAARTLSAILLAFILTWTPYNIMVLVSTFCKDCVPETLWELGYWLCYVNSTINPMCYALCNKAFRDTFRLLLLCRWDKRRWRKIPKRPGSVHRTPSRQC
- test_summary: R-SAT (Receptor Selection and Amplification) assay, M1
- Assay type: cell-based
- conditions: percent efficacy vs carbachol = 100 percent, read-out: M1 EFF % AVG
Below is a list of entries, each paired with its recorded Emax value.
Unit % implied. Number only.

Example results:
>  <compound>
COCC[C@H]1C[C@H]2CC[C@@H](C1)N2C[C@@H](C)Cn1ncc2ccccc21 [Compound 303S]

>  <measurement_units>
%

>  <endpoint_result>
121

$$$$
>  <compound>
C[C@H](CN1[C@@H]2CC[C@H]1C[C@@H](OCC1CC1)C2)Cn1ncc2ccc(F)cc21

>  <measurement_units>
%

>  <endpoint_result>
156

$$$$
>  <compound>
C=CCO[C@H]1C[C@H]2CC[C@@H](C1)N2C[C@@H](C)Cn1ncc2ccccc21

>  <measurement_units>
%

>  <endpoint_result>
115

$$$$
>  <compound>
C[C@H](CN1[C@@H]2CC[C@H]1C[C@@H](OC1CCCC1)C2)Cn1ncc2ccccc21 [Compound 314s]

>  <measurement_units>
%

>  <endpoint_result>
104

$$$$
>  <compound>
CCOCC[C@H]1C[C@H]2CC[C@@H](C1)N2C[C@@H](C)Cn1ncc2ccc(C)cc21

>  <measurement_units>
%

>  <endpoint_result>
82

$$$$

According to the records, this compound "Cc1ccc2cnn(C[C@H](C)CN3[C@@H]4CC[C@H]3C[C@@H](OCC3CC3)C4)c2c1" displays Emax of 110

Looking up C[C@H](CN1[C@@H]2CC[C@H]1C[C@@H](OCC1CC1)C2)Cn1ncc2ccc(CO)cc21 [Compound 310s] , I see its Emax listed as 96

Lookup result for "C[C@H](CN1[C@@H]2CC[C@H]1C[C@@H](OCC1CCC1)C2)Cn1ncc2ccccc21" ; measured Emax: 100

Input "COc1ccc2cnn(C[C@H](C)CN3[C@@H]4CC[C@H]3C[C@@H](OCC3CC3)C4)c2c1" . Output Emax: 120

Briefly, Emax measured for "COCC[C@H]1C[C@H]2CC[C@@H](C1)N2C[C@@H](C)Cn1ncc2ccc(OC)cc21" : 116

Form field Emax, entry C[C@H](CN1[C@@H]2CC[C@H]1C[C@@H](OCC1CC1)C2)Cn1ncc2ccccc21 [Compound 302S] : 111

The reported Emax of the compound "COCC[C@H]1C[C@H]2CC[C@@H](C1)N2C[C@@H](C)Cn1ncc2ccc(F)cc21" was 123

Reported Emax ( C#CCO[C@H]1C[C@H]2CC[C@@H](C1)N2C[C@@H](C)Cn1ncc2ccc(OC)cc21 [Compound 322s] ) = 86

====

- target_entity: M1 muscarinic receptor (Homo sapiens (Human))
- Sequence (P11229 whole entry): as above
- test_summary: M1 GTPγS binding assay;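 note: efficacy relative to carbachol as 100%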
- Format: biochemical
- conditions: read-out: M1 GTPγS EFF % AVG
So basically: is Emax under 50%? Then rule met. Not under? Then rule not met.

Reference set, count: 5
>  <molecule>
CCOCC[C@H]1C[C@H]2CC[C@@H](C1)N2C[C@@H](C)Cn1ncc2ccc(C)cc21 [Compound 324]

>  <classification>
rule met

$$$$
>  <molecule>
Cc1cccc2cnn(C[C@H](C)CN3[C@@H]4CC[C@H]3C[C@@H](OCC3CC3)C4)c12 [Compound 317]

>  <classification>
rule not met

$$$$
>  <molecule>
C=CCO[C@H]1C[C@H]2CC[C@@H](C1)N2C[C@@H](C)Cn1ncc2ccc(F)cc21 [Compound 308]

>  <classification>
rule not met

$$$$
>  <molecule>
C#CCO[C@H]1C[C@H]2CC[C@@H](C1)N2C[C@@H](C)Cn1ncc2ccc(OC)cc21 [Compound 322s]

>  <classification>
rule met

$$$$
>  <molecule>
COCC[C@H]1C[C@H]2CC[C@@H](C1)N2C[C@@H](C)Cn1ncc2ccc(F)cc21 [Compound 309]

>  <classification>
rule not met

$$$$

Q. Problem: For the molecule Cc1ccc2c(cnn2C[C@H](C)CN2[C@@H]3CC[C@H]2C[C@@H](OCC2CC2)C3)c1 [Compound 321] , is Emax under 50%?
A. rule not met

Q. State whether 50% exceeds Emax recorded for C[C@H](CN1[C@@H]2CC[C@H]1C[C@@H](OC1CCCC1)C2)Cn1ncc2ccccc21 [Compound 314s] .
A. rule met

Q. Dear reviewer, please state whether CCCO[C@H]1C[C@H]2CC[C@@H](C1)N2C[C@@H](C)Cn1ncc2ccccc21 [Compound 319s] has Emax strictly beneath 50%.
A. rule not met
